method_notes: Activators of T cell receptors: qHTS campaign
condition_parameters: primary human leukocytes, anti-CD3, IL-2 HTRF, 48 h; series mostly up to 9.22 µM
Hit rate of the full screen: of about 330,000 compounds, fewer than 10 were called active. These entries were drawn from the full list.
endpoint_label: outcome

molecule	endpoint_label	assay_value
CC1=CC(=NNS(=O)(=O)c2ccc([N+](=O)[O-])cc2)CC(C)(C)C1	outcome	inactive
Cc1cc([N+](=O)[O-])c(=O)[nH]c1C	outcome	inactive
COc1cc2c(cc1OC)C1C(=O)c3cc(OS(C)(=O)=O)c(OC)cc3C1N(C)C2=O (configuration not stated)	outcome	inactive
COc1cccc2oc(CCc3ccccc3)cc(=O)c12	outcome	inactive
COc1ccc(N=C2C=CC(=O)O2)cc1	outcome	inactive
O=C1CC[C@@H]2CC3(C[C@@H]4CCN1[C@H]24)Nc1cc([N+](=O)[O-])ccc1NC3=NC1CCCCC1 (some centres not stated)	outcome	inactive
CN(C(=O)c1cccc(NC(=O)Cc2ccc(NC(=O)C3CCCN(C(=O)C4CC4)C3)cc2)c1)C1CC1 (configuration not stated)	outcome	inactive
O=S(=O)(Nc1ccc2ccccc2c1)N1CCCCC1	outcome	inactive
CCOC(=O)c1ccc2[nH]c(C)c(CN3CCN(C)CC3)c(=O)c2c1	outcome	inactive
O=C(NCCc1ccccc1)c1cccc(NC(=O)c2ccccc2)c1	outcome	inactive
Cc1ccccc1N1CCN(C(=O)c2cccnc2)CC1	outcome	inactive
CC(=O)OCC1(O)CC23CCC4c5ccoc5CCC4(C)C2CCC1C3 (configuration not stated)	outcome	inactive
O=C(Nc1ccc2ccccc2c1[N+](=O)[O-])c1ccccc1	outcome	inactive
COC1=NC2=NCCN2C(OC)=N1	outcome	inactive
Cc1nc2ccccc2c(C(=O)O)c1-c1ccccn1	outcome	inactive
OCC(O)C1OCOC(C(O)CO)C1O (configuration not stated)	outcome	inactive
COc1cc2c(cc1CNC[C@H]1O[C@@H](n3cnc(C(N)=O)n3)[C@H](O)[C@@H]1O)OCO2	outcome	inactive
O=C(O)c1ccc(NN=CC2=C(N3CCOCC3)/C(=C/c3ccccc3)CC2)cc1	outcome	inactive
O=C1OC(Cc2ccccc2)C(c2ccccc2)C1=O (configuration not stated)	outcome	inactive
COc1ccc(C(CNC(=O)c2cccc(S(=O)(=O)Nc3ccc(Br)cc3)c2)N(C)C)cc1 (configuration not stated)	outcome	inactive
COc1ccc(NC(=O)/C(N=Nc2cccc(S(=O)(=O)Nc3ccc(SC(F)F)cc3)c2)=C(\C)O)cc1	outcome	inactive
CN1C(c2ccc(F)cc2)=CS/C1=C(/C#N)c1nnc2n1-c1ccccc1SC2	outcome	inactive
